// provenance: ChEMBL document CHEMBL1136629

biological target: Peroxisome proliferator-activated receptor gamma (Homo sapiens, UniProt P37231); assay: In vitro binding affinity towards human peroxisome proliferator activated receptor gamma (PPAR gamma)
Sequence (P37231 whole entry): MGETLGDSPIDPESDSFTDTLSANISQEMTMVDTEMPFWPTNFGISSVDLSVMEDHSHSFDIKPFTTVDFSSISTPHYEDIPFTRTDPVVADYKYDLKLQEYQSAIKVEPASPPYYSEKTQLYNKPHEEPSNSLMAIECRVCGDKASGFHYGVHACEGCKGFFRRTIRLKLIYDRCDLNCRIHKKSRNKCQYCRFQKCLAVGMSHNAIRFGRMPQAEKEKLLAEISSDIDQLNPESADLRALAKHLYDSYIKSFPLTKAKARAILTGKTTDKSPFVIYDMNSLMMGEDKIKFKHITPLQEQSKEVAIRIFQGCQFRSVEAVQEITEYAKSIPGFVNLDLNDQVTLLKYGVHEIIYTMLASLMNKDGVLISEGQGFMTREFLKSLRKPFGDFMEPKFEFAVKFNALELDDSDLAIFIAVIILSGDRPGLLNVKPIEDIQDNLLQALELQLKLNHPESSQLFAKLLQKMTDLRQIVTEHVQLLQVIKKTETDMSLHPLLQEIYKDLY
Criterion: Ki strictly less than 200 nM. Met: Y. Not met: N.

Example entries begin here.
molecule	label value
CCCc1c(OCCCCOc2cccc(CC(=O)O)c2)ccc2c(-c3ccccc3)noc12	Y
CCCc1c(OCCCCOc2ccc(/C=C/C(=O)O)cc2)ccc2c(-c3ccccc3)noc12	Y
CCCc1c(OCCCCOc2cccc(CCC(=O)O)c2)ccc2c(-c3ccccc3)noc12	Y

Query block: A record lists CCCc1c(OCCCCOc2ccc(OC(C)C(=O)O)cc2)ccc2c(-c3ccccc3)noc12 (centres undefined) . Is its Ki below 200 nM?
Result block: Y

Query block: Is Ki of CCCc1c(OCCCCOc2ccc(CC(C)(C)C(=O)O)cc2)ccc2c(-c3ccccc3)noc12 strictly below 200 nM?
Result block: Y

Query block: Please state whether Ki is below 200 nM for CCCc1c(OCCCOc2cccc(CC(=O)O)c2)ccc2c(-c3ccccc3)noc12
Result block: N

Query block: Below 200 nM on Ki? Entry CCCc1c(OCCCOc2ccc(CCCC(=O)O)cc2)ccc2c(-c3ccccc3)noc12
Result block: Y
